- procedure details: Toxicity study in mice (Example 18)
- Assay type: in vivo
- test settings: mouse, in vivo, iv, mice (NMRI, male), 24 hours; read-out: LD 50 + Standard error
Consider the following compounds; for each one, report its LD50 at 24 h.
Express it in mg/kg; write the number only.

Exercise: Fill in the blank: the reported LD50 at 24 h of CC(=O)Oc1cc(OC(C)=O)cc(C(O)CNC(C)(C)C)c1 (stereo not shown) is ____.
Solution: 112

Exercise: Fill in the blank: the reported LD50 at 24 h of Br.CC(C)C(=O)Oc1cc(OC(=O)C(C)C)cc(C(O)CNC(C)(C)C)c1 (stereo not shown) is ____.
Solution: 52

Exercise: Fill in the blank: the reported LD50 at 24 h of CC(C)(C)NCC(O)c1cc(O)cc(O)c1 (racemic) is ____.
Solution: 52

Exercise: Fill in the blank: the reported LD50 at 24 h of CCC(=O)Oc1cc(OC(=O)CC)cc(C(O)CNC(C)(C)C)c1 (stereo not shown) is ____.
Solution: 70
